Listed next: entries and their corresponding melting point.

compound="COc1cc2c(cc1C1COc3cc4occc4cc3C1=O)OCO2 (stereo not drawn)" quantitymeasured="melting point" result="174 to 175 °C"
compound="COc1cc2c(cc1O)[C@H]1Oc3cc4c(cc3[C@H]1CO2)OCO4 [Compound 19, (−)-2-hydroxypterocarpin]" quantitymeasured="melting point" result="223 to 225 °C"
compound="CC(C)(O)C1Cc2cc3c(cc2O1)OC[C@H]1c2ccc(O)cc2O[C@@H]31 (stereo partly drawn)" quantitymeasured="melting point" result="209 to 213 °C"
compound="CC1(C)Oc2cc3c(cc2CC1O)[C@@H]1Oc2cc(O)ccc2[C@@H]1CO3 (stereo partly drawn)" quantitymeasured="melting point" result="194 to 196 °C"
compound="COc1ccc2c(c1)OCC(c1cc3c(cc1OC)OCO3)C2=O (stereo not drawn)" quantitymeasured="melting point" result="133 to 135 °C"

// switching to the query compound
Specify reported melting point for the compound shown: O=C1c2cc3ccoc3cc2O[C@]2(O)COc3cc4c(cc3[C@H]12)OCO4 [Compound 13, 12a-hydroxydolineon]
155 to 156 °C

----------
Quick reference for IC50 among some compounds
System: Plasmodium falciparum TM4/8.2
method: Antimalaria assay, [3H] hypoxanthine incorporation, TM4/8.2 strain
Assay type: cell-based
experimentalConditions: read-out: P. f (IC50 μM) TM4/8.2

Use the examples below as a reference point.
compound="Oc1cc(O)c2c(c1)O[C@H](c1ccc(O)c(O)c1)[C@@H](O)C2 [Compound 3, (+)-catechin]" result="> 100 µM"
compound=O=C1c2cc3ccoc3cc2O[C@@H]2COc3cc4c(cc3[C@H]12)OCO4 result="> 29.6 µM"
compound=C=C(C)[C@H]1Cc2c(ccc3c2O[C@@H]2COc4cc(OC)c(OC)cc4[C@@H]2C3=O)O1 result="> 26.2 µM"
compound=COc1cc2c(cc1-c1cc3cc4ccoc4cc3oc1=O)OCO2 result="> 32.3 µM"

Please find the next compound below.
Tell me its IC50 given C=C(C)C1Cc2c(ccc3c2O[C@@H]2COc4cc(OC)c(OC)cc4[C@]2(O)C3=O)O1 (some centres unmarked) [Compound 21, 12a-hydroxyrotenone] as the entry.
> 27.6 µM
